# system name: Bcl-2 protein (histag-Bcl-2, UniProtKB P10415) (Homo sapiens (Human), UniProt P10415)
# Sequence (P10415 whole entry): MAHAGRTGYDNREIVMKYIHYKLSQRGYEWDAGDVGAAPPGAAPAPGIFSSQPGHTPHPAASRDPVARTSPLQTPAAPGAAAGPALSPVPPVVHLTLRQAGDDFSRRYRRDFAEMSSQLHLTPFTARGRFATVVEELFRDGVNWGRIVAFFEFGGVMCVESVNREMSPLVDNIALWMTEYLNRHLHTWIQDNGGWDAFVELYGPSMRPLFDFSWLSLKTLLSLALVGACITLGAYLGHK
# assay overview: Inhibition of Bcl-2 by the fluorescence polarisation technique
# Format: binding
# condition context: incubation for 2 hours, read-out: IC50 (nM) Bcl-2 FP
Where a name gives a salt, the structure may show the parent alone.
The entries below come with measured IC50 values attached.
observed property: IC50 (nM)

1. Cc1c(C(=O)N(c2ccc(O)cc2)c2cnn(C3CCOC3)c2)cc(-c2cc(Cl)ccc2C(=O)N2Cc3ccccc3C[C@H]2CN2CCOCC2)n1C (some centres unmarked) [Example 127, hydrochloride]; 5.3
2. Cc1c(C(=O)N(c2ccc(O)cc2)c2cnn(C3CC3)c2)cc(-c2cc(F)ccc2C(=O)N2Cc3ccccc3C[C@H]2CN2CCOCC2)n1C [Example 214, hydrochloride]; 6.3
3. Cc1c(C(=O)N(c2ccc(O)cc2)c2cnn(C)c2)cc(-c2cc3c(cc2C(=O)N2Cc4ccccc4C[C@H]2C)OCO3)n1C; 7.2
4. Cc1c(N(C(=O)c2cc(-c3cc4c(cc3C(=O)N3Cc5ccccc5C[C@H]3CN3CCOCC3)OCCO4)n(C)c2C)c2ccc(O)cc2)cc(C#N)n1C [Example 413, hydrochloride]; 3.1
5. COCCc1c(C(=O)N(c2ccc(O)cc2)c2cnc3c(c2)CCN3C)cc(-c2cc3c(cc2C(=O)N2Cc4ccccc4C[C@H]2CN2CCOCC2)OCO3)n1C [Example 358, hydrochloride]; 14.8

* * *

# system name: Bcl-2 protein (histag-Bcl-2, UniProtKB P10415) (Homo sapiens (Human), UniProt P10415)
# assay overview: Inhibition of Bcl-2 by the fluorescence polarisation technique
# Assay type: binding
# condition context: incubation for 2 hours, read-out: IC50 (nM) Bcl-2 FP
Where a name gives a salt, the structure may show the parent alone.
observed property: log10 of IC50 (log10 of the value in nM)

1) Cc1c(C(=O)N(c2ccc(O)cc2)c2ccnc(C#N)n2)cc(-c2cc(Cl)ccc2C(=O)N2Cc3ccccc3C[C@H]2CN2CCOCC2)n1C [Example 404, hydrochloride]; 1.39
2) Cc1c(C(=O)N(c2ccc(O)cc2)c2cnn(C)c2)cc(-c2cc3c(cc2C(=O)N2Cc4ccccc4C[C@H]2C)OCO3)n1CCN(C)C [Example 27, hydrochloride]; 0.72
3) COc1ccc(C(=O)N2Cc3ccccc3C[C@H]2C)c(-c2cc(C(=O)N(c3ccc(O)cc3)c3cnn(C)c3)c(C)n2C)c1; 0.86
4) Cc1c(C(=O)N(c2ccc(O)cc2)c2cnn(C)c2)cc(-c2cc(Cl)ccc2C(=O)N2Cc3ccccc3C[C@H]2CN2CCOCC2)n1C [Example 25, hydrochloride]; 0.60
5) Cc1c(C(=O)N(c2ccncc2)c2ccc(O)cc2)cc(-c2cc(Cl)ccc2C(=O)N2Cc3ccccc3C[C@H]2CN2CCOCC2)n1C [Example 74, hydrochloride]; 0.60
6) Cc1c(C(=O)N(c2ccc(O)cc2)c2cnn(C)c2)cc(-c2cc3c(cc2C(=O)N2Cc4ccccc4C[C@H]2C)OCO3)n1CCO; 0.56
7) Cc1c(C(=O)N(c2ccc(O)cc2)c2cnc3c(c2)CCN3C)cc(-c2ccccc2C(=O)N2Cc3ccccc3C[C@H]2CN2CCOCC2)n1C [Example 410, hydrochloride]; 1.00
8) Cc1c(C(=O)N(c2ccccc2)c2ccc(O)cc2)cc(-c2cc(Cl)ccc2C(=O)N2CCc3ccccc3C2)n1C; 1.28
9) Cc1c(C(=O)N(c2ccc(O)cc2)c2cccc(F)c2)cc(-c2cc3c(cc2C(=O)N2Cc4ccccc4C[C@H]2CN2CCOCC2)OCO3)n1C [Example 16, hydrochloride]; 1.10
10) Cc1c(C(=O)N(c2ccccc2)c2ccc(O)cc2)cc(-c2cc(F)ccc2C(=O)N2Cc3ccccc3C[C@H]2CN2CCOCC2)n1CCCO [Example 11, hydrochloride]; 1.15
11) COc1ncc(N(C(=O)c2cc(-c3cc(F)ccc3C(=O)N3Cc4ccccc4C[C@H]3CN3CCOCC3)n(C)c2C)c2ccc(O)cc2)cn1; 0.72
12) Cc1c(C(=O)N(c2ccc(O)cc2)c2ccc3c(ccn3C)n2)cc(-c2cc(Cl)ccc2C(=O)N2Cc3ccccc3C[C@H]2CN2CCOCC2)n1C [Example 391, hydrochloride]; 1.48
13) Cc1c(C(=O)N(c2ccc(O)cc2)c2ccc(C#N)s2)cc(-c2cc(Cl)ccc2C(=O)N2Cc3ccccc3C[C@H]2CN2CCOCC2)n1C [Example 436, hydrochloride]; 1.69
14) Cc1c(C(=O)N(c2ccc(O)cc2)c2cnn(C)c2)cc(-c2cc(Cl)ccc2C(=O)N2Cc3ccccc3C[C@H]2C)n1CCN1CCOCC1 [Example 411, hydrochloride]; 0.74
15) Cc1c(C(=O)N(c2ccc(O)cc2)c2cc(C#N)n(C)c2)cc(-c2cc(Cl)ccc2C(=O)N2Cc3ccccc3C[C@H]2CN2CCOCC2)n1C [Example 108, hydrochloride]; 0.59
16) Cc1c(C(=O)N(c2ccccc2)c2ccc(O)cc2)cc(-c2cc(Cl)ccc2C(=O)N2Cc3ccccc3C[C@H]2CO)n1C; 0.88
17) COc1cc(C(=O)N2Cc3ccccc3C[C@H]2C)c(-c2cc(C(=O)N(c3ccc(O)cc3)c3cnn(C)c3)c(C)n2C)cc1F; 1.16
18) Cc1c(C(=O)N(C)c2ccc(O)cc2)cc(-c2ccc(CNS(=O)(=O)CCc3ccc(F)cc3)cc2C(=O)N2Cc3ccccc3C[C@H]2C)n1C; 2.13
19) Cc1c(C(=O)N(C)c2ccc(O)cc2)cc(-c2cc(CNC(=O)Oc3ccccc3)ccc2C(=O)N2Cc3ccccc3C[C@H]2C)n1C; 1.81
20) Cc1c(C(=O)N(C)c2ccc(O)cc2)cc(-c2ccc(CNC(=O)Oc3ccccc3)cc2C(=O)N2Cc3ccccc3C[C@H]2C)n1C; 1.12
21) Cc1c(C(=O)N(c2ccncc2)c2ccc(O)cc2)cc(-c2cc3c(cc2C(=O)N2Cc4ccccc4C[C@H]2CN2CCN(C)CC2)OCO3)n1C [Example 70, hydrochloride]; 0.93
22) Cc1c(C(=O)N(c2ccc(O)cc2)c2cnn(C)c2)cc(-c2cc(F)c(O)cc2C(=O)N2Cc3ccccc3C[C@H]2C)n1C; 0.32
23) CC1=C(C(=O)N(c2ccccc2)c2ccc(O)cc2)CC(c2cc(Cl)ccc2C(=O)N2Cc3ccccc3C[C@H]2COCCN2CCOCC2)N1C (some centres unmarked) [Example 29, hydrochloride]; 0.82

* * *

The entries below come with measured IC50 values attached.
# system name: Bcl-2 protein (histag-Bcl-2, UniProtKB P10415) (Homo sapiens (Human), UniProt P10415)
# assay overview: Inhibition of Bcl-2 by the fluorescence polarisation technique
# Type: binding
# condition context: incubation for 2 hours, read-out: IC50 (nM) Bcl-2 FP
Counter-ions that a name gives are not always drawn.
observed property: IC50 (nM)

1. COc1cnc(N(C(=O)c2cc(-c3cc(Cl)ccc3C(=O)N3Cc4ccccc4C[C@H]3CN3CCOCC3)n(C)c2C)c2ccc(O)cc2)cn1 [Example 444, hydrochloride]; 5.5
2. Cc1c(C(=O)N(c2ccc(O)cc2)c2cnc3c(ccn3C)c2)cc(-c2cc(Cl)ccc2C(=O)N2Cc3ccccc3C[C@H]2CCCN2CCOCC2)n1C [Example 393, hydrochloride]; 2.1
3. Cc1c(C(=O)N(c2ccc(O)cc2)c2cnn(C)c2)cc(-c2cc(Cl)ccc2C(=O)N2Cc3ccccc3C[C@H]2C)n1C; 5
4. Cl.[2H]C([2H])([2H])n1cc(N(C(=O)c2cc(-c3cc(Cl)ccc3C(=O)N3Cc4ccccc4C[C@H]3CN3CCOCC3)n(C)c2C)c2ccc(O)cc2)cn1; 2.9
5. COc1ccc(C(=O)N2Cc3ccccc3C[C@H]2CN2CCOCC2)c(-c2cc(C(=O)N(c3ccc(O)cc3)c3cc(C#N)n(C)c3C)c(C)n2C)c1 [Example 408, hydrochloride]; 5.4

* * *

# system name: Bcl-2 protein (histag-Bcl-2, UniProtKB P10415) (Homo sapiens (Human), UniProt P10415)
# assay overview: Inhibition of Bcl-2 by the fluorescence polarisation technique
# Type: binding
# condition context: incubation for 2 hours, read-out: IC50 (nM) Bcl-2 FP
Structures can show the parent of a compound that is named as a salt.
The entries below come with measured IC50 values attached.
observed property: IC50 (nM)

1) Cc1c(C(=O)N(c2ccc(O)cc2)c2cnc3c(cnn3C)c2)cc(-c2cc(F)ccc2C(=O)N2Cc3ccccc3C[C@H]2CN2CCOCC2)n1C [Example 451, hydrochloride]; 2.9
2) Cc1c(C(=O)N(c2ccccc2)c2ccc(O)cc2)cc(-c2cc(F)ccc2C(=O)N2Cc3ccccc3C[C@H]2CN2CCOCC2)n1C [Example 10, hydrochloride]; 16.2
3) COc1ncc(N(C(=O)c2cc(-c3cc4c(cc3C(=O)N3Cc5ccccc5C[C@H]3CN3CCOCC3)OCO4)n(C)c2C)c2ccc(O)cc2)cn1 [Example 50, hydrochloride]; 5.9
4) Cc1c(C(=O)N(C)c2ccc(O)cc2)cc(-c2ccc(CNC(=O)COc3ccccc3)cc2C(=O)N2Cc3ccccc3C[C@H]2C)n1C; 50
5) Cc1ccc(N(C(=O)c2cc(-c3cc4c(cc3C(=O)N3Cc5ccccc5C[C@H]3CN3CCOCC3)OCO4)n(C)c2C)c2ccc(O)cc2)cc1F [Example 13, hydrochloride]; 4.4
6) Cc1c(N(C(=O)c2cc(-c3cc(Cl)ccc3C(=O)N3Cc4ccccc4C[C@H]3CN3CCOCC3)n(C)c2C)c2ccc(O)cc2)cn(C)c1C#N [Example 458, hydrochloride]; 10.5
